Overview of reported melting point across a group of molecules:

Please review the following examples before continuing.
# molecule, melting point
records = [
    ("C[C@@H]1CN(c2ccc(C#N)c(C(F)(F)F)c2)[C@@H](C)CN1C(=O)Nc1ccc(C#N)nc1 [Example 18-7]", "220 to 222 °C"),
    ("CC(=O)Nc1nccc(NC(=O)N2C[C@@H](C)N(c3ccc(C#N)c(C(F)(F)F)c3)C[C@@H]2C)n1 (racemic)", "191 to 193 °C"),
    ("C[C@@H]1CN(C(=O)Nc2ccc(F)cc2)[C@@H](C)CN1c1ccc(C#N)c(C(F)(F)F)c1 (relative stereo)", "200 to 203 °C"),
    ("COc1ccc(NC(=O)N2C[C@H](C)N(c3ccc(C#N)c(C(F)(F)F)c3)C[C@H]2C)cn1 [Example 6-13]", "184 to 185 °C"),
]

Now for another entry.
Quick note, melting point for C[C@@H]1CN(c2ccc(C#N)c(C(F)(F)F)c2)[C@@H](C)CN1C(=O)Nc1ccc(F)nc1 landed at 163 to 165 °C

====

Parameter Ki: see the listing below.
molecular target: rat androgen receptor (Rattus norvegicus); construct: The cytosol fraction obtained in the step (1) was adjusted to a protein concentration of 1 mg/ml and used as a rat androgen receptor solution; from tissue; host or cells: rat ventral prostate gland cytosol fraction (male Wistar rats, castrated); test: biochemical; details: 3H-mibolerone 1 nM, rat prostate cytosol; Ki calculated from IC50 by Cheng and Prusoff; read-out: Binding activity for rat androgen receptor (Ki = nM)
Sequence (P15207 whole entry S389L): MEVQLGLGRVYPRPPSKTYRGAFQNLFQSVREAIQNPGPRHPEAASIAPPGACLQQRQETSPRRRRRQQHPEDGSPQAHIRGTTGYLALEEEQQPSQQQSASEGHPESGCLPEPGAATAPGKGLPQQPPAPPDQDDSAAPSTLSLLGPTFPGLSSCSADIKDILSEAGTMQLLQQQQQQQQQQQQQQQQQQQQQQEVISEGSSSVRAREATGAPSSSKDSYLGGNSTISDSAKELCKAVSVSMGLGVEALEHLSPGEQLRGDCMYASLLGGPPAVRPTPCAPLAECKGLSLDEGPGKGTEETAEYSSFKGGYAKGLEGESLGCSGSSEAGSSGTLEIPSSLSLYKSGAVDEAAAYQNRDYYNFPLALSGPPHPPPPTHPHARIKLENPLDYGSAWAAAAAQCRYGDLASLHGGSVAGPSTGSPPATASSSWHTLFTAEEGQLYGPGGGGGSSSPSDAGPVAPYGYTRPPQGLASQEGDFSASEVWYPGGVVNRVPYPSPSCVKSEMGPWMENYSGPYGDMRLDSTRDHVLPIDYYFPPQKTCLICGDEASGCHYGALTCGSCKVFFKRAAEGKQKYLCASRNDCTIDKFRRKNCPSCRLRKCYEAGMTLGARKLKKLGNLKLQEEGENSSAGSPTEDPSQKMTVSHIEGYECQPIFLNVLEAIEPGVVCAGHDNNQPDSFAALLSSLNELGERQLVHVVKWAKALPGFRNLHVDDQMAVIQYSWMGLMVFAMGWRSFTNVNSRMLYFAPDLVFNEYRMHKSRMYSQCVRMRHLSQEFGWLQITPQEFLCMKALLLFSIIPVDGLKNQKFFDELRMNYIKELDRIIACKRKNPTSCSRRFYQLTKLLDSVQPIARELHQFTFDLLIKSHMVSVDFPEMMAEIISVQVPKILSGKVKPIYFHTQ
Return type: number; implicit unit nM.

# structureSmiles, unitName, observedResult
data = [
    ("C[C@@H]1CN(c2ccc(C#N)c(C(F)(F)F)c2)[C@@H](C)CN1C(=O)Nc1ccnc(Br)c1", "nM", 7.56),
    ("C[C@@H]1CN(c2ccc(C#N)c(C(F)(F)F)c2)[C@@H](C)CN1C(=O)Nc1ccc(C#N)nc1", "nM", 6.66),
    ("C[C@@H]1CN(c2ccc(C#N)c(C(F)(F)F)c2)[C@@H](C)CN1C(=O)Nc1ccnc(F)c1", "nM", 15.6),
    ("CNC(=O)c1cc(NC(=O)N2C[C@H](C)N(c3ccc(C#N)c(C(F)(F)F)c3)C[C@H]2C)ccn1", "nM", 1.91),
    ("COc1ccc(NC(=O)N2C[C@H](C)N(c3ccc(C#N)c(C(F)(F)F)c3)C[C@H]2C)cn1", "nM", 3.58),
]

Recorded Ki for C[C@@H]1CN(c2ccc(C#N)c(C(F)(F)F)c2)[C@@H](C)CN1C(=O)Nc1ccnc(N)n1 on rat androgen receptor (Rattus norvegicus) was 1.81

====

Form field: melting point (one value per entry).

In the examples that follow, each entry is paired with its recorded melting point.
# molecule, melting point
data = [
    ("C[C@@H]1CN(C(=O)Nc2ccnc(N)c2)[C@@H](C)CN1c1ccc(C#N)c(C(F)(F)F)c1 (racemic)", "208 to 211 °C"),
    ("C[C@@H]1CN(c2ccc(C#N)c(C(F)(F)F)c2)[C@@H](C)CN1C(=O)N1CC[S+]([O-])CC1 (relative stereo)", "173 to 175 °C"),
    ("C[C@@H]1CN(C(=O)NC(C)(C)c2ccccc2)[C@@H](C)CN1c1ccc(C#N)c(C(F)(F)F)c1 (relative stereo)", "152.5 to 153.5 °C"),
]

Note to self: melting point recorded for CC1(C)CN(c2ccc(C#N)c(C(F)(F)F)c2)CN1C(=O)Nc1ccc(F)cc1 was 199 to 200 °C
